From: the supplement of paper PMC10724198

Tested on: Saccharomyces cerevisiae
Experiment: protein stability index of tFT-peptide fusion (C-terminal peptide) (PSI (0-1 scale)); higher = more stable (slower turnover);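 note: PSI is a weighted mean of sequencing reads over stability bins, variants kept only with over 10 reads, mCherry proximal and sfGFP distal, peptide attached via GGGS linker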
Conditions: genetic background: wild type; temperature: 37 C
Entries and their measured protein stability index follow.

Macromolecule sequence	protein stability index
FMCCFWFFWLGF	0.501
SSVCYFGLLFIV	0.139
QIDYSVYIFALG	0.454
RVWIVCYHVSSY	0.349
FGKGRSLLLVFS	0.576
FSLLLSLSLFHC	0.356
VLGRCWWIVSDL	0.755
RIIDRVSRLIML	0.627
ARSGGYLMVVLV	0.562
LTCTSTPMACRV	0.586
FSFPAFTFIVSI	0.447
RSLSFGMVLCYS	0.401
LPPSTFLLHFLL	0.415
SRDSLLTLIPSC	0.697
GGGGGGRWGRLC	0.478
LFGFLCVVMCCG	0.485
WYVRVYVLSVES	0.264
YSRFALRPQLLV	0.327
YCAAVCFWGLYC	0.233
VVGLVSIVQVIM	0.493
VIWIRMISFFVW	0.346
KCEKGLYCCIAF	0.626
PLHPSSTPATPF	0.722
LFFSFLFLATRC	0.311
LQSYVSRLVRLS	0.359
YLVSFVAFLRLF	0.1
RLRWLSPMTHVG	0.58
LVCLVFVRSSLV	0.457
CSRTRLHCFTAS	0.68
FFAIFSLLLSFT	0.527
GGVVAACRGGIG	0.374
FFVFSFVLFFPL	0.444
KEKGVTKIRISS	0.377
WAAVGIQLRLLF	0.347
LEYCLATYLSAC	0.439
RLSGACILLSLV	0.439
SSLLPLLAQLVG	0.411
NENQIKVIMLLV	0.268
FLSLSFLLLHFP	0.479
GGFLLRGLFLFL	0.63
FLVPLSPMLLSA	0.463

###

System: Saccharomyces cerevisiae
Test: protein stability index of tFT-peptide fusion (C-terminal peptide) (PSI (0-1 scale)); higher = more stable (slower turnover)
Conditions: genetic background: wild type; temperature: 30 C

Macromolecule sequence	Assayed target	protein stability index
EKGRSGVNILRV	Saccharomyces cerevisiae	0.653
NRVHLPELAFIT	Saccharomyces cerevisiae	0.662
FPPYHTSSGFDA	Saccharomyces cerevisiae	0.733
PHTPARSLPPSR	Saccharomyces cerevisiae	0.647
YTRGVENTDMAP	Saccharomyces cerevisiae	0.768
YYIITRWPNTTR	Saccharomyces cerevisiae	0.847
PPLPLPSPPTPH	Saccharomyces cerevisiae	0.654
GSSPCHNEESGT	Saccharomyces cerevisiae	0.693
GAAGGRGRGTAW	Saccharomyces cerevisiae	0.619
LLPPPPFSAPPS	Saccharomyces cerevisiae	0.671
VGVRGGRFWAGA	Saccharomyces cerevisiae	0.682
NKVRDKTQLKIE	Saccharomyces cerevisiae	0.78
PAHPHPYHPSLH	Saccharomyces cerevisiae	0.626
RPFSMGSNNIIR	Saccharomyces cerevisiae	0.7
HQCVNLNTIKWV	Saccharomyces cerevisiae	0.634
TGKHDIAQEQTK	Saccharomyces cerevisiae	0.679
SRDSLLTLIPSC	Saccharomyces cerevisiae	0.692
VMTRNERGQERK	Saccharomyces cerevisiae	0.675
NFPVLLSISALL	Saccharomyces cerevisiae	0.548
RRKSEYAYNTKN	Saccharomyces cerevisiae	0.565
SLPGAPSPPHPL	Saccharomyces cerevisiae	0.744
PSPPLPRPLSPP	Saccharomyces cerevisiae	0.72
AGGAGWGLVLGC	Saccharomyces cerevisiae	0.647
HIAKQSSRRRRR	Saccharomyces cerevisiae	0.68
RKQRAGRRKDKQ	Saccharomyces cerevisiae	0.734
LHCKDWGHESRD	Saccharomyces cerevisiae	0.684
PPRPPLPPTLPP	Saccharomyces cerevisiae	0.697
RSGSVGGMECHV	Saccharomyces cerevisiae	0.7
LSSARPLAGVHT	Saccharomyces cerevisiae	0.675
PPFLRSALRSSS	Saccharomyces cerevisiae	0.672
LLCHAGRTPRPP	Saccharomyces cerevisiae	0.646
VTLGQNGVSLRS	Saccharomyces cerevisiae	0.596
FVFSGLSGDFRG	Saccharomyces cerevisiae	0.649
RSLSWCTKRRCC	Saccharomyces cerevisiae	0.372
FPPRPPPSPSAH	Saccharomyces cerevisiae	0.675
AWCLGVGESRPH	Saccharomyces cerevisiae	0.739
RGKSPPPSSPPL	Saccharomyces cerevisiae	0.684
KKNHYKAICNRR	Saccharomyces cerevisiae	0.619
LPPLSLSPPLPP	Saccharomyces cerevisiae	0.689
LGGWWVSRVGEP	Saccharomyces cerevisiae	0.732
LLYALLLSLFRY	Saccharomyces cerevisiae	0.595
